- tested-on: recombinant human S1PR1 (Homo sapiens)
- Sequence (P21453 whole entry): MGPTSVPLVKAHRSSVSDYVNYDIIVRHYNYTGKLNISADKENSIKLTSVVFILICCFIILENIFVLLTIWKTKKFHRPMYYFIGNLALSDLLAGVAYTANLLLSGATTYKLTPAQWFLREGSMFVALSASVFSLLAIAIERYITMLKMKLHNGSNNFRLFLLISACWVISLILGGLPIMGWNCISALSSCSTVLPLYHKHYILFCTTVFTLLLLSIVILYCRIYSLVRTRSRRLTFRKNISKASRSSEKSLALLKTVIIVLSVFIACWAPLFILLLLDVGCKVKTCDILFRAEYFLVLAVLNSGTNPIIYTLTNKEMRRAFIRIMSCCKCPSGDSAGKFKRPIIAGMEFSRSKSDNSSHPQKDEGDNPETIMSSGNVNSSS
- test-name: [32P]S1P competitive binding assay, S1PR1
pIC50: −log10 of the molar value.
pIC50 values by entry
value-kind: pIC50

In [3]: df
Out[3]:
                                   compound  value_kind  relation_symbol  value
0  OCCOc1ccc(-c2noc(-c3ccc(OCCF)c(C(F)(F)F)c3)n2)cc1 [20a]       pIC50                =   7.25
1  CN(CCO)Cc1ccc(-c2noc(-c3ccc(OCCF)c(C(F)(F)F)c3)n2)cc1 [13b]       pIC50                =   7.42
2  OCCNCc1ccc(-c2noc(-c3ccc(OCCF)c(C(F)(F)F)c3)n2)cc1 [13d]       pIC50                =   7.32
3  OCc1ccc(-c2noc(-c3ccc(OCCF)cc3)n2)cc1 [10c]       pIC50                <   6.00

====

- tested-on: recombinant human S1PR2 (Homo sapiens)
- Sequence (O95136 whole entry): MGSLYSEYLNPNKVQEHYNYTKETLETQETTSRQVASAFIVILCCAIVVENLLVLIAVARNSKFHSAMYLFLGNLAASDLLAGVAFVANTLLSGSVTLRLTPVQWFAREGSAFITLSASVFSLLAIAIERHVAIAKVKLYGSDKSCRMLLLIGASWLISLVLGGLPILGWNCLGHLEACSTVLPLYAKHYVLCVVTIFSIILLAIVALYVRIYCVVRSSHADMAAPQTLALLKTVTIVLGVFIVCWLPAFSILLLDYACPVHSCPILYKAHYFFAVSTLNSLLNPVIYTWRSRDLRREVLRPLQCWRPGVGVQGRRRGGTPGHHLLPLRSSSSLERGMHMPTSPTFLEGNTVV
- test-name: [32P]S1P competitive binding assay, S1PR2
- experimental-parameters: read-out: IC50 S1PR2; competition against [32P]S1P, recombinant human S1PR2 membranes; mean ± SD
pIC50: −log10 of the molar value.
value-kind: pIC50

In [3]: df
Out[3]:
                                   compound   value
0  OCC(O)c1ccc(-c2noc(-c3ccc(OCCF)c(C(F)(F)F)c3)n2)cc1 (racemic) [(±)-24]  < 6.00

====

- tested-on: recombinant human S1PR5 (Homo sapiens)
- Sequence (Q9H228 whole entry): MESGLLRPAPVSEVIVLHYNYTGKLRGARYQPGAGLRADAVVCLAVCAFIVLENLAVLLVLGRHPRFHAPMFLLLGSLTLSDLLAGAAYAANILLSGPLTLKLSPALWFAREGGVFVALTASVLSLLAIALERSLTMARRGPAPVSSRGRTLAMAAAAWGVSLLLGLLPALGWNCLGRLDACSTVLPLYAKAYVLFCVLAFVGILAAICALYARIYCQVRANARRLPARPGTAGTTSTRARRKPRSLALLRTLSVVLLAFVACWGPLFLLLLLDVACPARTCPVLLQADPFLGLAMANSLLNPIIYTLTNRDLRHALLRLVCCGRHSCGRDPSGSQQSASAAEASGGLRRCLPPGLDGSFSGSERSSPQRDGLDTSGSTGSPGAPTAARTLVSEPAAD
- test-name: [32P]S1P competitive binding assay, S1PR5
- experimental-parameters: read-out: IC50 S1PR5; competition against [32P]S1P, recombinant human S1PR5 membranes; mean ± SD
value-kind: IC50

                                   compound  value_kind   value
0  OCC(O)c1ccc(-c2noc(-c3ccc(OCCF)c(C(F)(F)F)c3)n2)cc1 (racemic) [(±)-24]        IC50  > 1 µM

====

- tested-on: recombinant human S1PR2 (Homo sapiens)
- test-name: [32P]S1P competitive binding assay, S1PR2
value-kind: IC50

>>> print(df.to_string())
                                   compound                               tested_on  value_kind   value
0  OCCOCCOCc1ccc(-c2noc(-c3ccc(OCCF)c(C(F)(F)F)c3)n2)cc1 [17b]  recombinant human S1PR2 (Homo sapiens)        IC50  > 1 µM
1  OCCOCc1ccc(-c2noc(-c3ccc(OCCF)c(C(F)(F)F)c3)n2)cc1 [17a]  recombinant human S1PR2 (Homo sapiens)        IC50  > 1 µM
2  OCc1ccc(-c2noc(-c3ccc(OCCF)c(C(F)(F)F)c3)n2)cc1 [10a]  recombinant human S1PR2 (Homo sapiens)        IC50  > 1 µM

====

- tested-on: recombinant human S1PR3 (Homo sapiens, UniProt Q99500)
- Sequence (Q99500 whole entry): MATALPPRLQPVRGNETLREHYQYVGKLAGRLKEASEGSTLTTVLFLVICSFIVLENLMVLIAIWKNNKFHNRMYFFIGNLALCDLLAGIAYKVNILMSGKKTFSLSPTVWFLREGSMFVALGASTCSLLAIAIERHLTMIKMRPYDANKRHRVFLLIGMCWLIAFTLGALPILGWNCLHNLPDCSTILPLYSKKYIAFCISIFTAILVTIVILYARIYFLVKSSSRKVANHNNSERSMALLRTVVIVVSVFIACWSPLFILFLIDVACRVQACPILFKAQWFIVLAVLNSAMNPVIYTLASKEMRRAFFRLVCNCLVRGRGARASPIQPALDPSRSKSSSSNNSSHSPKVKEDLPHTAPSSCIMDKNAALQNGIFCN
- test-name: [32P]S1P competitive binding assay, S1PR3
- experimental-parameters: read-out: IC50 S1PR3; competition against [32P]S1P, recombinant human S1PR3 membranes; mean ± SD
pIC50: −log10 of the molar value.
value-kind: pIC50

In [3]: df
Out[3]:
                                   compound   value
0  OCC(O)c1ccc(-c2noc(-c3ccc(OCCF)c(C(F)(F)F)c3)n2)cc1 (racemic) [(±)-24]  < 6.00
